# Organism: Rattus norvegicus
# test-method-notes: Inhibition of rat serum BuChE using butyrylthiocholine iodide as substrate measured at 50 uM after 15 mins by Ellman's method relative to control
measured-parameter: inhibition (%)
Supply the numeric figure in %, leaving out any unit text.

# compound, measured-parameter, unit-info, readout-number
records = [
    ("CCN(CCCn1sc2cc(OC)c(OC)cc2c1=O)Cc1ccccc1N(C)C", "inhibition", "%", 27.9),
    ("CCN(CCCCCCn1sc2cc(OC)c(OC)cc2c1=O)Cc1ccccc1N(C)C", "inhibition", "%", 46.8),
    ("CCN(CCCn1sc2cc(OC)c(OC)cc2c1=O)Cc1ccc(N(C)C)cc1", "inhibition", "%", 9.6),
    ("COc1ccccc1CN(C)CCCCCCn1sc2cc(OC)c(OC)cc2c1=O", "inhibition", "%", 28.8),
    ("CCN(CCCCCCn1c(=O)c2cc(OC)c(OC)cc2[s+]1[O-])Cc1ccccc1 (stereo unspecified)", "inhibition", "%", 8.1),
    ("COc1ccccc1CN(C)CCCCn1sc2cc(OC)c(OC)cc2c1=O", "inhibition", "%", 25.5),
]

Query: What value of inhibition has been recorded for this entry: `CCN(CCCCn1sc2cc(OC)c(OC)cc2c1=O)Cc1ccccc1`
Reply: 21.8

Query: What do you have for `COc1cc2s[nH]c(=O)c2cc1OC` ?
Reply: 10.3

Query: Similarly, `CCN(CCCCCCn1sc2cc(OC)c(OC)cc2c1=O)Cc1ccccc1` ?
Reply: 48.2

Query: Also `CCN(CCCCn1sc2cc(OC)c(OC)cc2c1=O)Cc1ccccc1N(C)C` , if possible.
Reply: 32.6
